Species on record: Mus musculus
protocol-details: Concentration of compound to inhibit 50% (IC50) electrically evoked contractions was tested in Mouse vas deferens (MVD) assay.
Assay type: functional
Square brackets hold non-standard residues; d marks the D form. Peptide text beside a SMILES is read from it.
# log10(IC50) per entry
Note: values are log10 of IC50 expressed in nM.

C[C@@H](NC(=O)[C@@H](N)Cc1ccc(O)cc1)C(=O)N[C@@H](Cc1ccccc1)C(=O)N[C@@H](Cc1ccccc1)C(N)=O (H-Y[dA]FF-NH2) : 2.90
C[C@@H](NC(=O)[C@@H](N)Cc1ccc(O)cc1)C(=O)NCC(=O)N(C)[C@@H](Cc1ccccc1)C(=O)NCCO : 2.98

Could you now look at the following molecule, please?
Indicate the recorded log10(IC50) value for this molecule: NCCCC[C@H](NC(=O)[C@H](Cc1ccccc1)NC(=O)[C@@H](CCCN=C(N)N)NC(=O)[C@@H](N)Cc1ccc(O)cc1)C(N)=O
2.89

====

Species: Mus musculus
protocol-details: Ke value for naloxone as antagonist (compound) was measured by using Mouse vas deferens (MVD) assay.
Format: functional
Square brackets hold non-standard residues; d marks the D form. Peptide text beside a SMILES is read from it. dNva = CCC[C@@H](N)C(=O)O; Orn = NCCC[C@H](N)C(=O)O
property-measured: Ke (nM)
Report the figure in nM without appending any unit label.

NC(N)=NCCC[C@@H](NC(=O)C(N)Cc1ccc(O)cc1)C(=O)NC(Cc1ccccc1)C(=O)NCCC(N)C(=O)O (some centres not stated) : 1.01
NCCC[C@H](NC(=O)[C@H](Cc1ccccc1)NC(=O)[C@@H](CCCN=C(N)N)NC(=O)[C@@H](N)Cc1ccc(O)cc1)C(N)=O : 1.13
NCCCC[C@H](NC(=O)[C@H](Cc1ccccc1)NC(=O)[C@@H](CCCN=C(N)N)NC(=O)[C@@H](N)Cc1ccc(O)cc1)C(N)=O : 1.64
CCCC[C@H](NC(=O)[C@H](Cc1ccccc1)NC(=O)[C@@H](CCC)NC(=O)[C@@H](N)Cc1ccc(O)cc1)C(N)=O : 1.27
CCC[C@@H](NC(=O)[C@@H](N)Cc1ccc(O)cc1)C(=O)N[C@@H](Cc1ccccc1)C(=O)N[C@@H](CCCN)C(N)=O (H-Y[dNva]F[Orn]-NH2) : 1.47
C[C@@H](NC(=O)[C@@H](N)Cc1ccc(O)cc1)C(=O)N[C@@H](Cc1ccccc1)C(=O)N[C@@H](Cc1ccccc1)C(=O)N[C@@H](CCCN=C(N)N)C(=O)N[C@@H](CCCN=C(N)N)C(N)=O : 1.27

As a next step, examine the compound that follows.
Indicate the recorded Ke value for this compound: NC(=O)[C@@H]1CC(=O)NCCC[C@@H](NC(=O)[C@@H](N)c2ccc(O)cc2)C(=O)N[C@@H](Cc2ccccc2)C(=O)N1
2.11

====

target-of-assay: Delta-type opioid receptor (Rattus norvegicus)
Sequence (P33533 whole entry): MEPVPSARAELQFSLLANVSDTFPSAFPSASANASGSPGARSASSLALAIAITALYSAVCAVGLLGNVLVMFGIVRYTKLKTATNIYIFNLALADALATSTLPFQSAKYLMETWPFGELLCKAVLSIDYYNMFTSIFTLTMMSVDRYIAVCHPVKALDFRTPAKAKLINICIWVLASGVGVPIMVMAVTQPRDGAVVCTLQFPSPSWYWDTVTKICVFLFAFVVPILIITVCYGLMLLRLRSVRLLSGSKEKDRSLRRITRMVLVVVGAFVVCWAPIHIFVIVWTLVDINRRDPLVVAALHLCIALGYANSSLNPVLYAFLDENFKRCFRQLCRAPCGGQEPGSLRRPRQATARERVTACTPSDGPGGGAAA
protocol-details: Binding affinity against delta opioid receptor by displacement of radioligand [3H]DSLET in rat brain membrane
Format: cell membranes
property-measured: Ki (nM)
Dear colleague, please return just the value in nM, with no unit written.

Specify measured Ki for NC(=O)[C@H](CCCN=C(N)N)NC(=O)[C@H](CCCN=C(N)N)NC(=O)[C@@H]1CC(=O)NCCC[C@@H](NC(=O)[C@@H](N)Cc2ccc(O)cc2)C(=O)N[C@@H](Cc2ccccc2)C(=O)N1 .
1880

====

Species on record: Cavia porcellus
protocol-details: Ke value for naloxon as antagonist (compound) was measured by using Guinea pig ileum assay.
Format: functional
Square brackets hold non-standard residues; d marks the D form. Peptide text beside a SMILES is read from it. dNle = CCCC[C@@H](N)C(=O)O; dNva = CCC[C@@H](N)C(=O)O; Orn = NCCC[C@H](N)C(=O)O
property-measured: Ke (nM)
The reply should contain only the number, in nM.

Solved cases (5 shown):
NC(=O)[C@H](CCCN=C(N)N)NC(=O)[C@H](CCCN=C(N)N)NC(=O)[C@@H]1CC(=O)NCCC[C@@H](NC(=O)[C@@H](N)Cc2ccc(O)cc2)C(=O)N[C@@H](Cc2ccccc2)C(=O)N1 : 2.03
NC(=O)[C@@H]1CC(=O)NCCC[C@@H](NC(=O)[C@@H](N)c2ccc(O)cc2)C(=O)N[C@@H](Cc2ccccc2)C(=O)N1 : 1.57
C[C@@H](NC(=O)[C@@H](N)Cc1ccc(O)cc1)C(=O)N[C@@H](Cc1ccccc1)C(=O)N[C@@H](Cc1ccccc1)C(=O)N[C@@H](CCCN=C(N)N)C(=O)N[C@@H](CCCN=C(N)N)C(N)=O : 0.57
CCC[C@@H](NC(=O)[C@@H](N)Cc1ccc(O)cc1)C(=O)N[C@@H](Cc1ccccc1)C(=O)N[C@@H](CCCN)C(N)=O (H-Y[dNva]F[Orn]-NH2) : 1.55
CCCC[C@@H](NC(=O)[C@@H](N)Cc1ccc(O)cc1)C(=O)N[C@@H](Cc1ccccc1)C(=O)N[C@@H](CCCN)C(N)=O (H-Y[dNle]F[Orn]-NH2) : 1.01

Find the measured Ke of NCCC[C@H](NC(=O)[C@H](Cc1ccccc1)NC(=O)[C@@H](CCCN=C(N)N)NC(=O)[C@@H](N)Cc1ccc(O)cc1)C(N)=O and report it.
1.24

Return Ke (reported value) for this compound: C[C@@H](NC(=O)[C@@H](N)Cc1ccc(O)cc1)C(=O)N[C@@H](Cc1ccccc1)C(=O)N[C@@H](Cc1ccccc1)C(N)=O (H-Y[dA]FF-NH2)
0.789

Fill in Ke for record NC(N)=NCCC[C@@H](NC(=O)C(N)Cc1ccc(O)cc1)C(=O)NC(Cc1ccccc1)C(=O)NCCC(N)C(=O)O (stereo not given in full)
1.32

Consider the compound CCCC[C@H](NC(=O)[C@H](Cc1ccccc1)NC(=O)[C@@H](CCC)NC(=O)[C@@H](N)Cc1ccc(O)cc1)C(N)=O . State its measured Ke.
1.72

Give the measured Ke for NCCCC[C@H](NC(=O)[C@H](Cc1ccccc1)NC(=O)[C@@H](CCCN=C(N)N)NC(=O)[C@@H](N)Cc1ccc(O)cc1)C(N)=O
1.17

====

Species: Mus musculus
protocol-details: Ke value for naloxone as antagonist (compound) was measured by using Mouse vas deferens (MVD) assay.
Type: functional
Square brackets hold non-standard residues; d marks the D form. Peptide text beside a SMILES is read from it. dNle = CCCC[C@@H](N)C(=O)O; Orn = NCCC[C@H](N)C(=O)O
Measured Ke accompanies every entry in the list below.
Number in nM, nothing else.

Examples with their reported Ke follow.
CCCC[C@@H](NC(=O)[C@@H](N)Cc1ccc(O)cc1)C(=O)N[C@@H](Cc1ccccc1)C(=O)N[C@@H](CCCN)C(N)=O (H-Y[dNle]F[Orn]-NH2) : 1.5
C[C@@H](NC(=O)[C@@H](N)Cc1ccc(O)cc1)C(=O)N[C@@H](Cc1ccccc1)C(=O)N[C@@H](Cc1ccccc1)C(N)=O (H-Y[dA]FF-NH2) : 1.31

Lab note: next molecule to report on.
Consider the molecule NC(=O)[C@H](CCCN=C(N)N)NC(=O)[C@H](CCCN=C(N)N)NC(=O)[C@@H]1CC(=O)NCCC[C@@H](NC(=O)[C@@H](N)Cc2ccc(O)cc2)C(=O)N[C@@H](Cc2ccccc2)C(=O)N1 and give its recorded Ke.
2.02

====

Organism: Mus musculus
protocol-details: The relative potency of compound was measured by comparing the potency of compound to the [Leu]enkephalin in Mouse vas deferens (MVD) assay.
Format: functional
Reported Relative potency is given for each of the following molecules.
// response body must contain only the number

Some molecules with known Relative potency results, for comparison:
NC(=O)[C@@H]1CC(=O)NCCC[C@@H](NC(=O)[C@@H](N)c2ccc(O)cc2)C(=O)N[C@@H](Cc2ccccc2)C(=O)N1 : 0.00294
NCCC[C@H](NC(=O)[C@H](Cc1ccccc1)NC(=O)[C@@H](CCCN=C(N)N)NC(=O)[C@@H](N)Cc1ccc(O)cc1)C(N)=O : 0.0105
C[C@@H](NC(=O)[C@@H](N)Cc1ccc(O)cc1)C(=O)N[C@@H](Cc1ccccc1)C(=O)N[C@@H](Cc1ccccc1)C(=O)N[C@@H](CCCN=C(N)N)C(=O)N[C@@H](CCCN=C(N)N)C(N)=O : 0.00875
NC(=O)[C@H](CCCN=C(N)N)NC(=O)[C@H](CCCN=C(N)N)NC(=O)[C@@H]1CC(=O)NCCC[C@@H](NC(=O)[C@@H](N)Cc2ccc(O)cc2)C(=O)N[C@@H](Cc2ccccc2)C(=O)N1 : 0.0153

Consider the molecule NC(N)=NCCC[C@@H](NC(=O)C(N)Cc1ccc(O)cc1)C(=O)NC(Cc1ccccc1)C(=O)NCCC(N)C(=O)O (stereo not given in full) and give its recorded Relative potency.
0.0173

====

// values below are reported Ki
target-of-assay: Delta-type opioid receptor (Rattus norvegicus)
protocol-details: Binding affinity against Opioid receptor delta 1 by displacement of radioligand [3H]DSLET in rat brain membrane
Type: cell membranes
Output spec: scalar in nM, unitless text.

C[C@@H](NC(=O)[C@@H](N)Cc1ccc(O)cc1)C(=O)NCC(=O)N(C)[C@@H](Cc1ccccc1)C(=O)NCCO : 1280
CCCC[C@H](NC(=O)[C@H](Cc1ccccc1)NC(=O)[C@@H](CCC)NC(=O)[C@@H](N)Cc1ccc(O)cc1)C(N)=O : 181

// next entry
With Delta-type opioid receptor (Rattus norvegicus) as the test system, provide measured Ki for this compound: C[C@@H](NC(=O)[C@@H](N)Cc1ccc(O)cc1)C(=O)N[C@@H](Cc1ccccc1)C(=O)N[C@@H](Cc1ccccc1)C(=O)N[C@@H](CCCN=C(N)N)C(=O)N[C@@H](CCCN=C(N)N)C(N)=O
167
